As shown below, each of these molecules has a reported IC50 value.
Target: HCV polymerase (NS5B) type 1b (Hepatitis C virus genotype 1b, UniProt P26663)
Construct: a region encoding NS5B (J Virol 1991 March, 65(3), 1105-13, 544 amino acids after deletion of 47 amino acids on the C-terminal); 6xHis (C); made in house; host or cells: Escherichia coli
Sequence (P26663 2420-2963): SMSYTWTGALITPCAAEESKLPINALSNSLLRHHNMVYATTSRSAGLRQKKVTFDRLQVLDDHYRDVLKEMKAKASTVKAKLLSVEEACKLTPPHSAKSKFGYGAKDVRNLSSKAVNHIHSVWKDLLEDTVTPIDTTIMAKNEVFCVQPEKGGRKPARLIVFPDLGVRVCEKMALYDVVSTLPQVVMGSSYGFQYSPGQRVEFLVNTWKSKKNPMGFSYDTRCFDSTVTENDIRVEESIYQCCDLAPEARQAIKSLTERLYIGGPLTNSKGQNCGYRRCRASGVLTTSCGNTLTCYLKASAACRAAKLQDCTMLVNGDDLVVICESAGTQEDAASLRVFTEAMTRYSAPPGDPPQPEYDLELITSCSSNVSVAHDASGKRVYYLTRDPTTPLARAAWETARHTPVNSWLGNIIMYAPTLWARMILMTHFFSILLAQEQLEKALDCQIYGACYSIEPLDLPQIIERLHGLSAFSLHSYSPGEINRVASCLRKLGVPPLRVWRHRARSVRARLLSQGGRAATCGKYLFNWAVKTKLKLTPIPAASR
Test: Assay of enzyme (HCV polymerase) inhibitory activity, type 1b enzyme
Type: biochemical, HCV BK strain (type 1b)
Settings: HCV polymerase inhibitory activity IC50, 1b, type 1b enzyme

[
  {
    "molecule": "O=C(NCc1ccc(OC(F)(F)F)cc1)[C@H]1CN(c2nc3nc(C4CC4)ncc3s2)CCN1S(=O)(=O)c1ccc(OC(F)(F)F)cc1F [Example 1110]",
    "IC50": "< 100 nM"
  },
  {
    "molecule": "O=C(NCc1ccc(OC(F)F)cc1F)[C@H]1CN(c2nc3nc(C4CC4)ncc3s2)CCN1S(=O)(=O)c1ccc(OC(F)(F)F)cc1 [Example 1045]",
    "IC50": "< 100 nM"
  },
  {
    "molecule": "CC(=O)N1CCN(S(=O)(=O)c2ccc(C(C)C)cc2)[C@H](C(=O)NCc2ccc(C(F)(F)F)cc2)C1 [Example 1117]",
    "IC50": "> 1000 nM"
  },
  {
    "molecule": "O=C(NCc1ccc(OC(F)(F)F)cc1)[C@H]1CN(c2nc3nc(CO)ncc3s2)CCN1S(=O)(=O)c1ccc(C(F)(F)F)cc1 [Example 1052]",
    "IC50": "< 100 nM"
  },
  {
    "molecule": "O=C(NCc1ccc(OC(F)(F)F)cc1)[C@H]1CN(c2nc3nc(C4CC4)[nH]c(=O)c3s2)CCN1S(=O)(=O)c1ccc(OC(F)(F)F)cc1 [Example 1108]",
    "IC50": "< 100 nM"
  },
  {
    "molecule": "CCCc1ccc(CNC(=O)[C@H]2CN(c3nc(C)c(C(=O)O)cc3F)CCN2S(=O)(=O)c2ccc(OC(F)(F)F)cc2)cc1 [Example 823]",
    "IC50": "100 to 1000 nM"
  }
]
